Tested on: H2.35 cells
reported.endpoint: CC50

What CC50 value was documented for this compound, CCc1cncnc1N1CCN(Cc2nc3ccc(C(F)(F)F)cc3[nH]2)CC1 [PF-4708671] ?
> 50 µM

====

run.description: in vitro
measurement.context: mouse
Measured CC50, listed per entry for reference.

Please review the entries below; each comes with its answer.
compound	reported.endpoint	value
CO[C@H]1C[C@@H]2CC[C@@H](C)[C@@](O)(O2)C(=O)C(=O)N2CCCC[C@H]2C(=O)O[C@H]([C@H](C)C[C@@H]2CC[C@@H](O)[C@H](OC)C2)CC(=O)[C@H](C)/C=C(\C)[C@@H](O)[C@@H](OC)C(=O)[C@H](C)C[C@H](C)/C=C/C=C/C=C/1C [Rapamycin]	CC50	> 100 µM
C[S+]([O-])c1ccc(-c2nc(-c3ccncc3)c(-c3ccc(F)cc3)[nH]2)cc1 (stereo not drawn) [SB203580]	CC50	> 100 µM

What CC50 value was documented for this compound, O=C(NOC[C@H](O)CO)c1ccc(F)c(F)c1Nc1ccc(I)cc1F [PD0325901] ?
> 100 µM

Value source: paper PMC5923485
